// provenance: the METLIN SMRT retention time set (Domingo-Almenara et al. 2019)

Assay: gradient 5% acetonitrile 3 min, to 50% in 2 min, to 85% in 15 min, held 3 min, 100 µL/min
Conditions: column: Zorbax Extend-C18 2.1 x 50 mm; eluents: water / acetonitrile, 0.1% formic acid
Please use class 1 whenever RP-LC retention time is not below 600 s, and class 0 whenever it is.

                                    compound  class_name
 0    Cc1nc(NCCNC(=O)c2snnc2C)cc(-n2cccn2)n1     class 1
 1  COc1c(C(=O)NCc2ccc3c(c2)OCO3)sc2ccc(Cl)cc12     class 1
 2  CCc1ccc(-c2cc3c(=O)n(Cc4noc(CN5CCCCC5CC)n4)ccn3n2)cc1 (stereo not given)     class 1
 3  CC(=O)Nc1ccc(OCC(O)CNC(C)(C)CC(C)(C)C)cc1 (stereo not given)     class 0
 4  Cc1ccc(C(=O)N2[C@H]3CC[C@@H]2c2cnc(C)nc2C3)cn1     class 0
 5  COc1cccc(CNC2=NCCNC23CCN(S(=O)(=O)c2c(C)cc(C)cc2C)CC3)c1     class 1
 6  CCOC(=O)c1noc2nc(C)nc(Nc3ccc(OCC)cc3)c12     class 1
 7  CN(CCc1ccccn1)c1ccc2c(c1)C(=O)c1ccccc1-2     class 1
 8  CCOc1cc(C(=O)NC2CCN(c3cc(-c4cccs4)[nH]n3)C2)cc(OCC)c1OCC (stereo not given)     class 1
 9  COCC(=O)N1CCCc2ccc(NC(=O)CSc3ccc(F)cc3)cc21     class 1
10  CN(C)C(=O)c1n[nH]c2c1CN(C(=O)c1ccc(F)c(F)c1)CC2     class 1
11  CCC(=O)N1C[C@@H]2C(=O)N(CCc3ccccc3)C(=O)[C@@H]2C1     class 1
12  COc1ccc(-c2noc(CN3N=NC4C(=O)N(c5ccc(OC)c(OC)c5)C(=O)C43)n2)cc1OC (stereo not given)     class 1
13  COc1cc(NC(=O)NCC(c2cccnc2)c2cn(C)c3ccccc23)cc(OC)c1OC (stereo not given)     class 1
14  COc1nc(N)nc2c1ncn2[C@@H]1O[C@H](CO)[C@@H](O)[C@@H]1O     class 0
15  CCN1C(=O)C2(CCN(S(=O)(=O)Cc3ccc(Cl)cc3)CC2)c2ccccc21     class 1
16  O=C(CSC1CCc2ccccc2NC1=O)Nc1ccc(Cl)cc1Cl (stereo not given)     class 1
